Source of measurements: patent US20250214965A1

System: OVCAR-3
Test: Inhibition of proliferation of ovarian cancer cell line OVCAR-3 (CellTiter Glo)
Assay type: cell-based
Details: Homo sapiens; OVCAR-3 cells, 96 hours, CellTiter Glo; read-out: OVCAR-3 IC50
pIC50: −log10 of the molar value.
Measured Quantity: pIC50

>  <Compound>
Cc1cc(NC(=O)c2ccc(NS(=O)(=O)CCO)cc2N2CCC(=C(F)F)CC2)nc(N2CCC(F)(F)CC2)c1F [Compound 79]

>  <Reading>
> 7.30

$$$$
>  <Compound>
Cc1cc(NC(=O)c2ccc(NS(=O)(=O)C(C)CO)cc2N2CCC3(CC2)CC3)nc(N2CCC(=C(F)F)CC2)n1 (stereo not drawn) [Compound 3C]

>  <Reading>
> 6.70

$$$$
>  <Compound>
CC(C)(C)NS(=O)(=O)c1cccc(NC(=O)c2ccc(NS(=O)(=O)C3(C)CC3)cc2N2CCC(=C(F)F)CC2)c1 [Compound 39]

>  <Reading>
> 7.30

$$$$
>  <Compound>
Cc1cc(NC(=O)c2ccc(NS(=O)(=O)[C@H](C)CO)cc2N2CCC(=C(F)F)CC2)nc(N2CCC(F)(F)CC2)n1 [Compound 68]

>  <Reading>
> 7.30

$$$$
>  <Compound>
C[C@@H]1CN(c2cccc(NC(=O)c3ccc(NS(=O)(=O)C4(CN5CC(O)C5)CC4)cc3N3CCC4(CC3)CC4)n2)CCO1 [Compound 32]

>  <Reading>
> 5.82

$$$$
>  <Compound>
CC(C)(C)NS(=O)(=O)c1cccc(NC(=O)c2ccc(S(=O)(=O)C3(C)COC3)cc2N2CCC(=C(F)F)CC2)c1 [Compound 67]

>  <Reading>
> 6.30

$$$$

----------
Experiment: Pharmacokinetic study in rats
Conditions: male, SD, rat, plasma, po, 3 mg/kg
Measured Quantity: AUC(0-t) (ng·h/mL)

>  <Compound>
Cc1cc(NC(=O)c2ccc(NS(=O)(=O)C3(CO)CC3)cc2N2CCC(=C(F)F)CC2)nc(N2CCC(F)(F)CC2)n1 [Compound 51]

>  <Unit Symbol>
ng·h/mL

>  <Reading>
424

$$$$
>  <Compound>
Cc1cc(NC(=O)c2ccc(NS(=O)(=O)CCO)cc2N2CCC(=C(F)F)CC2)nc(N2CCC(F)(F)CC2)c1F [Compound 79]

>  <Unit Symbol>
ng·h/mL

>  <Reading>
2240

$$$$
>  <Compound>
Cc1cc(NC(=O)c2ccc(NS(=O)(=O)[C@H](C)CO)cc2N2CCC(=C(F)F)CC2)nc(N2CCC(F)(F)CC2)c1 [Compound 82]

>  <Unit Symbol>
ng·h/mL

>  <Reading>
4520

$$$$
>  <Compound>
Cc1cc(NC(=O)c2ccc(NS(=O)(=O)[C@H](C)CO)cc2N2CCC(=C(F)F)CC2)nc(N2CCC(F)(F)CC2)n1 [Compound 68]

>  <Unit Symbol>
ng·h/mL

>  <Reading>
3330

$$$$

----------
// reported pIC50 for each item listed
Tested on: OVCAR-3
Test: Inhibition of proliferation of ovarian cancer cell line OVCAR-3 (CellTiter Glo)
Format: cell-based
Conditions: Homo sapiens; OVCAR-3 cells, 96 hours, CellTiter Glo; read-out: OVCAR-3 IC50
pIC50: −log10 of the molar value.

>  <Compound>
CC(C)(CO)Nc1ccc(C(=O)Nc2cccc(S(=O)(=O)C3CCCC3)c2)c(N2CCC(=C(F)F)CC2)n1

>  <pIC50>
> 7.12

$$$$
>  <Compound>
Cc1cc(NC(=O)c2ccc(NS(=O)(=O)C3CC(O)C3)cc2N2CCC3(CC2)CC3)nc(N2CCC(F)(F)CC2)n1 (centres unmarked)

>  <pIC50>
> 7.30

$$$$
>  <Compound>
Cc1cc(NC(=O)c2ccc(NS(=O)(=O)CCO)nc2N2CCC(=C(F)F)CC2)nc(N2CCC(F)(F)CC2)n1

>  <pIC50>
> 6.30

$$$$
>  <Compound>
C[C@@H]1CN(c2cccc(NC(=O)c3ccc(NS(=O)(=O)CCO)cc3N3CCC(=C(F)F)CC3)n2)CCO1

>  <pIC50>
> 7.30

$$$$
>  <Compound>
CC(C)=C1CCN(c2nc(NCCO)ccc2C(=O)Nc2cccc(S(=O)(=O)C3CCCC3)c2)CC1

>  <pIC50>
> 5.70

$$$$
>  <Compound>
CC(C)(C)NS(=O)(=O)c1cccc(NC(=O)c2ccc(S(=O)(=O)NC(C)(C)C)cc2N2CCC(=C(F)F)CC2)c1

>  <pIC50>
> 7.30

$$$$
>  <Compound>
Cc1cc(NC(=O)c2ccc(NS(=O)(=O)C(C)CO)cc2N2CCC(=C(F)F)CC2)nc(N2CCC(F)(F)CC2)n1 (centres unmarked)

>  <pIC50>
> 7.30

$$$$
>  <Compound>
C[C@@H]1CN(c2cccc(NC(=O)c3ccc(NS(=O)(=O)C4(CN5CCC5)CC4)cc3N3CCC4(CC3)CC4)n2)CCO1

>  <pIC50>
> 6.30

$$$$
>  <Compound>
CP(=O)(c1cccc(NC(=O)c2ccc(NCCO)nc2N2CCC3(CC2)CC3)c1)C1CCCC1 (centres unmarked)

>  <pIC50>
> 5.82

$$$$
>  <Compound>
N#Cc1ccc(NC(=O)c2ccc(NS(=O)(=O)CCO)cc2N2CCC(=C(F)F)CC2)nc1N1CCC(F)(F)CC1

>  <pIC50>
> 7.30

$$$$
>  <Compound>
Cc1nc(N2CCC(F)(F)CC2)nc(NC(=O)c2ccc(NS(=O)(=O)CCO)cc2N2CCC(=C(F)F)CC2)c1F

>  <pIC50>
> 6.00

$$$$
>  <Compound>
C=C(C)C1CCN(c2cc(NS(=O)(=O)C3(C)CC3)ccc2C(=O)Nc2cccc(S(=O)(=O)NC(C)(C)C)c2)CC1

>  <pIC50>
> 6.70

$$$$
>  <Compound>
CC(C)(C)NS(=O)(=O)c1cccc(NC(=O)c2ccc(NS(=O)(=O)CCO)cc2N2CCC(=C(F)F)CC2)c1

>  <pIC50>
> 7.30

$$$$
>  <Compound>
Cc1cc(NC(=O)c2ccc(NS(=O)(=O)C3(CO)CC3)cc2N2CCC3(CC2)CC3)nc(N2CCC(=C(F)F)CC2)n1

>  <pIC50>
> 6.30

$$$$

----------
Measured pIC50 of individual entries
Tested on: OVCAR-3
Assay: Inhibition of proliferation of ovarian cancer cell line OVCAR-3 (CellTiter Glo)
Format: cell-based
Conditions: Homo sapiens; OVCAR-3 cells, 96 hours, CellTiter Glo; read-out: OVCAR-3 IC50
pIC50: −log10 of the molar value.
Measured Quantity: pIC50

>  <Compound>
CC(C)(C)NS(=O)(=O)c1cccc(NC(=O)c2ccc(S(=O)(=O)C3COC3)cc2N2CCC(=C(F)F)CC2)c1

>  <Reading>
> 6.70

$$$$
>  <Compound>
Cc1cc(NC(=O)c2ccc(NS(=O)(=O)C3(CO)CC3)cc2N2CCC(=C(F)F)CC2)nc(N2CCC(F)(F)CC2)n1

>  <Reading>
> 7.30

$$$$
>  <Compound>
O=C(Nc1cccc(N2CCC(F)(F)CC2)n1)c1ccc(NS(=O)(=O)CCO)cc1N1CCC(=C(F)F)CC1

>  <Reading>
> 7.30

$$$$
>  <Compound>
CCc1cc(NC(=O)c2ccc(NS(=O)(=O)CCO)cc2N2CCC(=C(F)F)CC2)nc(N2CCC(F)(F)CC2)n1

>  <Reading>
> 6.70

$$$$
